- measuredTarget: ErbB2 V777L (Homo sapiens (Human), UniProt P04626, V777L)
- Sequence (P04626 23-1255 V777L): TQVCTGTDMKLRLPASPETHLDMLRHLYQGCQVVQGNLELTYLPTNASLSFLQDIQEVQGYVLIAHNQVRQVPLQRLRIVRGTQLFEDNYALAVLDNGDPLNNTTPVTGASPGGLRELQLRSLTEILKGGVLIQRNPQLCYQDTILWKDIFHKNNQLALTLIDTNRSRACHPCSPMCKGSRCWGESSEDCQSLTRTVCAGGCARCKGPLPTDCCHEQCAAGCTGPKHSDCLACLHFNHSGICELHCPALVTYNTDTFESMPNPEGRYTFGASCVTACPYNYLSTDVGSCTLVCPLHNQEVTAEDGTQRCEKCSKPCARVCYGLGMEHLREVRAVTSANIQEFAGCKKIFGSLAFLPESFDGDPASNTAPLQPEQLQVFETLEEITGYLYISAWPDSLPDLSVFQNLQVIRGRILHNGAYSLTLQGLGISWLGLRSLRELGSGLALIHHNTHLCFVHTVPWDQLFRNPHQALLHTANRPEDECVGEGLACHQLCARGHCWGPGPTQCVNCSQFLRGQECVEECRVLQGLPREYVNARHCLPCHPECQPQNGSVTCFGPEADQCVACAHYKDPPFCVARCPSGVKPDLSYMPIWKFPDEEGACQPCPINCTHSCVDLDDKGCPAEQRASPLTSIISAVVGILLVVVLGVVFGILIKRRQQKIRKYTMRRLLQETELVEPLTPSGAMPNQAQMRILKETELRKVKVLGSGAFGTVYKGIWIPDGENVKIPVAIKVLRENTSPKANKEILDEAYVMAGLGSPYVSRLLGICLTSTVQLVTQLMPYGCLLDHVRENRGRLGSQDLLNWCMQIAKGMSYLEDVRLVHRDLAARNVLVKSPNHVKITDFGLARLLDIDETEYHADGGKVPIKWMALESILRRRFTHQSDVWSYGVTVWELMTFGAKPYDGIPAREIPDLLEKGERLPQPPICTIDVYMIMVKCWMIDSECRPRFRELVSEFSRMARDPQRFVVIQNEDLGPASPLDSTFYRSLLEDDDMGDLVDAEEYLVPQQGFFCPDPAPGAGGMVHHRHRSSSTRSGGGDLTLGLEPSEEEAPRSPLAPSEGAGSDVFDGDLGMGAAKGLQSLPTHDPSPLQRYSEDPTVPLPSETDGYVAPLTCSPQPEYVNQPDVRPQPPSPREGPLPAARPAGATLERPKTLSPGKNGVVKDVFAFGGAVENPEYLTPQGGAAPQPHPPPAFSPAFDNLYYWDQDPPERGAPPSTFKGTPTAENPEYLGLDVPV
- assayExplanation: ErbB enzyme assay (CisBio HTRF-KinEASE-TK), ErbB2 V777L
- Type: biochemical
pIC50: −log10 of the molar value.
propertyMeasured: pIC50

Form field: pIC50 recorded for C=CC(=O)N[C@H]1CCCCN(c2ncc3ncnc(Nc4ccc(Oc5ccc6c(c5)nnn6C)c(C)c4F)c3n2)C1 [Compound 173] with ErbB2 V777L (Homo sapiens (Human), UniProt P04626, V777L) (enter value)
7.00 to 7.30

* * *

- measuredTarget: ErbB2 V777L (Homo sapiens (Human), UniProt P04626, V777L)
- assayExplanation: ErbB enzyme assay (CisBio HTRF-KinEASE-TK), ErbB2 V777L
- Assay type: biochemical
propertyMeasured: IC50

{"smilesData": "C=CC(=O)N1CCN(c2ncc3ncnc(Nc4ccc(Oc5cc6ncn(C)c6nc5C)c(C)c4)c3n2)CC1", "IC50": "0.05 to 0.1 µM"}
{"smilesData": "C=CC(=O)N1CCCN(c2ccc3ncnc(Nc4ccc(Oc5ccn6ncnc6c5)c(C)c4)c3n2)CC1", "IC50": "0.05 to 0.1 µM"}
{"smilesData": "C=CC(=O)N1C[C@H]2C[C@@H]1CN(c1ncc3ncnc(Nc4ccc(Oc5cc(F)c6c(c5)ncn6C)c(C)c4F)c3n1)C2", "IC50": "0.1 to 0.5 µM"}

Here's the next entry for you.
Tell me reported IC50 for `C=CC(=O)N1CCN(c2ncc3ncnc(Nc4ccc(Oc5cc(F)c6c(c5)nnn6C)c(C)c4F)c3n2)CC1` , tested with ErbB2 V777L (Homo sapiens (Human), UniProt P04626, V777L).
0.05 to 0.1 µM

* * *

- measuredTarget: ErbB2 V777L (Homo sapiens (Human), UniProt P04626, V777L)
- assayExplanation: ErbB enzyme assay (CisBio HTRF-KinEASE-TK), ErbB2 V777L
- Type: biochemical
Each record here notes measured IC50.

{"molecule": "C=CC(=O)N1CCN(c2ncc3ncnc(Nc4ccc(Oc5ccc6c(nnn6C)c5F)c(C)c4)c3n2)CC1", "IC50": "50 to 100 nM"}
{"molecule": "C=CC(=O)N1CCN(c2ccc3ncnc(Nc4cc(C)c(Oc5ccc6c(c5)nnn6C)cc4OC(F)(F)F)c3n2)C[C@H]1C", "IC50": "100 to 500 nM"}
{"molecule": "C=CC(=O)N(C)C1C2CN(c3ncc4ncnc(Nc5ccc(Oc6ccc7c(c6)nnn7C)c(C)c5F)c4n3)CC21 (stereo not drawn)", "IC50": "100 to 500 nM"}
{"molecule": "C=CC(=O)N(C)C1CN(c2ncc3ncnc(Nc4ccc(Oc5ccc6c(c5)nnn6C)c(C)c4)c3n2)C1", "IC50": "100 to 500 nM"}
{"molecule": "C=CC(=O)N1CCN(c2ncc3ncnc(Nc4ccc(Oc5cc6nnn(C)c6cn5)c(C)c4)c3n2)CC1", "IC50": "100 to 500 nM"}
{"molecule": "C=CC(=O)N1C[C@H](C)N(c2ncc3ncnc(Nc4ccc(Oc5ccc6c(c5)nnn6C)c(C)c4)c3n2)C[C@@H]1C", "IC50": "50 to 100 nM"}
{"molecule": "Cc1c(Oc2ccc3c(c2)nnn3C)ccc(Nc2ncnc3ccc(N4CCN(C(=O)/C=C/CF)[C@H](C)C4)nc23)c1F", "IC50": "50 to 100 nM"}
{"molecule": "C=C(COC)C(=O)N1CCN(c2ccc3ncnc(Nc4ccc(Oc5ccc6c(c5)nnn6C)c(C)c4)c3n2)CC1", "IC50": "500 to 1000 nM"}
{"molecule": "C=CC(=O)N1CCN(c2ncc3ncnc(Nc4cc(C)c(Oc5ccc6c(c5)nnn6C)c(Cl)c4)c3n2)C[C@H]1C", "IC50": "100 to 500 nM"}
{"molecule": "C=CC(=O)N1CCN(c2ccc3ncnc(Nc4ccc(Oc5ccc6c(c5)ncn6C(F)F)c(C)c4)c3n2)C[C@@H]1C1CC1", "IC50": "100 to 500 nM"}

Alright, here's another molecule for you.
IC50 for `C=CC(=O)N1CCN(c2ncc3ncnc(Nc4ccc(Oc5ccc6c(c5)nnn6C)c(C)c4)c3c2F)CC1` ?
100 to 500 nM
